# Tested on: SK-OV-3
# TEST: NCI tumour cell line growth inhibition, 48 h
The source made the active and inactive calls. No stated cut-off is given here; in the data, active = GI50 up to about 1.1 µM and inactive = higher.
Please reply with one of these outcomes: active, inactive

Would you please look over these solved cases?
MOLECULE	ASSIGNED LABEL
CCOC(=O)c1c(C)n(-c2ccc(C)cc2)c(=O)c2ccccc2c(=O)c2c(=O)ccc(=O)c1=2	inactive
CC(=O)Nc1ccc2c3c(cc(O)c2c1)N(C(=O)CCCCC(=O)Nc1ccc2c4c(cc(O)c2c1)N(C(=O)OC(C)(C)C)CC4CCl)CC3CCl (stereo not given)	inactive
CC1=C2C(=O)O[C@@H](c3ccoc3)[C@]2(C)CCC1=O	inactive
CCn1ncc2c(=O)n3ncn(-c4ccc(Br)cc4)c3nc21	inactive
N=C(N)NCCCCCCC(=O)NC(O)C(=O)NCCCCNCCCN (stereo not given)	inactive
CCC1CC(C)C(O)/C=C/C=C/CC(C)OC(=O)CC(O)C(OC)C1OC1OC(C)CC(O)(C(C)=O)C1O (stereo not given)	inactive
Fc1cccc(F)c1C1SCc2nc3cc(Cl)c(Cl)cc3n21 (stereo not given)	inactive
C[C@H](CC[C@@H](O)C(C)(C)O)[C@H]1CC[C@@]2(C)[C@@H]3CC=C4[C@@H](CC[C@H](OC5OC(CO)C(O)C(O)C5O)C4(C)C)[C@]3(C)C(=O)C[C@]12C (stereo not given in full)	inactive
CCc1ccccc1NC(=O)C1=C(C)NC(C)=C(C(=O)Nc2c(CC)cccc2CC)C1c1ccc2c(c1)OCO2 (stereo not given)	inactive
CC1=Nc2ccccc2S(=O)(=O)N1	inactive

-- ask Recorded test outcome, item "Oc1ccc(Cl)cc1Sc1cc(Cl)ccc1O"
-- reply inactive

-- ask Then what about the molecule OCC(O)COCn1cc(Cn2ncc3c(NCc4ccccc4)ncnc32)nn1 (stereo not given) ?
-- reply inactive

-- ask Another molecule to check: "C/C(=C\c1csc(C)n1)[C@@H]1C[C@@H]2O[C@]2(C)CCC[C@H](C)[C@H](O)[C@@H](C)C(=O)C(C)(C)[C@@H](O)CC(=O)O1"
-- reply active

-- ask Same again, this time with O=C(c1nc2ccc(Cl)cc2nc1O)C(O)c1ccccc1 (stereo not given)
-- reply inactive

-- ask Okay, and CCOC(=O)C1=C(N2CCCC2)C(=O)C(C(=O)OCC)C1 (stereo not given) ?
-- reply inactive

-- ask // query: "O=[N+]([O-])c1ccccc1S(=O)(=O)c1cc(O)cc2c1NCCC2"
-- reply inactive

-- ask Next record, please: "N#C/C(=C1/Sc2c(nc[nH]c2=O)N1c1ccccc1)c1nc2ccccc2[nH]1"
-- reply inactive

-- ask Okay, and C/C=C/C#CC#C/C=C/C=C/C(O)CCO (stereo not given) ?
-- reply inactive

-- ask // repeat for "C[C@@](Br)(C(=O)O)[C@H](Br)C(=O)O" and report
-- reply inactive

-- ask Lookup "CNC(=O)Oc1ccc(C(=S)Nc2ccc(Br)cc2)cc1"
-- reply inactive

---

# Tested on: NCI/ADR-RES
# TEST: NCI tumour cell line growth inhibition, 48 h
Activity calls are given as the source filed them. Cut-off read from the data, not from the text of the source: active = GI50 up to about 1.1 µM and inactive = higher.
Listed here are compounds together with their documented GI50.

A selection of reference data follows.
>>> print(df.to_string())
                                   compound  target_system             observed
0                 Nc1ncc(Sc2ccccc2C(=O)O)s1    NCI/ADR-RES  > 100 µM (inactive)
1        Nc1ncnc2c1ncn2[C@H]1CC[C@@H](NO)C1    NCI/ADR-RES  > 100 µM (inactive)
2  CC(=O)CCN1CC2CN=NC2(C#N)C1 (stereo not drawn)    NCI/ADR-RES  > 100 µM (inactive)
3  C/C=C/C1=CC(=O)C(O)C1O (stereo not drawn)    NCI/ADR-RES   25.5 µM (inactive)
4           C=CCOc1cc(NC(=S)c2ccoc2C)ccc1OC    NCI/ADR-RES  > 100 µM (inactive)

From here, focus on the item given below.
-- ask Entry O=C1C2CCCCC2C(=O)N1n1c(Cc2ccc(Cl)cc2)n[nH]c1=O (stereo not drawn) : reported GI50 = ?
-- reply > 100 µM (inactive)

---

# System: MDA-N
# TEST: NCI tumour cell line growth inhibition, 48 h
Active and inactive are the calls of the source. Cut-off read from the data, not from the text of the source: active = GI50 up to about 1.1 µM and inactive = higher.
Please state which outcome applies, choosing from active, inactive

COMPOUND	ASSIGNED LABEL
CCOC(=O)CCC(NC(=O)OCc1ccccc1)C(=O)NC(CCC(=O)OCC)C(=O)NC(CCC(=O)OCC)C(=O)NC(CCC(=O)OCC)C(=O)NC(CCC(=O)OCC)C(=O)OCC (configuration not stated)	inactive

-- ask Recorded test call requested for CC(C)(C)OC(=O)NCCC1SC2C=CC1C2 (configuration not stated)
-- reply inactive

-- ask Then what about the compound "CSc1c(CC(=O)Nc2ccc(Cl)cc2)n(Cc2ccccc2)c2ccccc12" ?
-- reply inactive

-- ask Same thing, different compound: "CCOC(C/N=c1/nc(N(C)C)ss1)OCC"
-- reply inactive

-- ask Another compound: "O=[N+]([O-])c1ccccc1S(=O)(=O)c1cc(O)cc2c1NCCC2"
-- reply inactive

-- ask How about "O=C(/C=C1/Nc2ccc([N+](=O)[O-])cc2N/C1=C/C(=O)c1ccc(Cl)cc1)c1ccc(Cl)cc1" ?
-- reply inactive

-- ask O=C1c2cc3c(cc2CC12Cc1ccc4c(c1C2=O)CCCC4)CCCC3 (configuration not stated) , same question.
-- reply inactive

-- ask Entry to check: CC1CCc2sc3nc(S)n(C)c(=O)c3c2C1 (configuration not stated)
-- reply inactive

-- ask Same lookup for C/C=C\C(CC(=O)NCCC1CN(S(=O)(=O)c2ccc(C)cc2)c2ccccc21)CC(=O)OC (configuration not stated) , please.
-- reply inactive

-- ask Next up: "O=C(c1ccco1)n1c2ccc(Br)cc2c2nc3ccccc3nc21"
-- reply inactive

-- ask Queued: "C[C@@](Br)(C(=O)O)[C@H](Br)C(=O)O"
-- reply inactive

-- ask Ok, now "COc1ccc(/C=C2\CCCc3ccccc3C2=O)cc1"
-- reply active

-- ask And what about the compound "COc1cccc(OC)c1NC(=O)C(=O)Nn1c(NNC(=O)c2ccncc2)nc2ccccc2c1=O" ?
-- reply inactive

-- ask Also check "COc1cc(/C=C2\CCC/C(=C\c3cc(OC)c(O)c(OC)c3)C2=O)cc(OC)c1O"
-- reply inactive

-- ask Follow-up item: CCC1CC(C)C(O)/C=C/C=C/CC(C)OC(=O)CC(O)C(OC)C1OC1OC(C)CC(O)(C(C)=O)C1O (configuration not stated)
-- reply inactive

-- ask Try this compound too: "COC(=O)/C=C\C(C#N)(C#N)/N=C/c1cccs1"
-- reply inactive

-- ask Can you check "CC(C)[C@@H]1CC[C@@H](C)C[C@H]1OC(=O)c1c2n(c3ccccc13)C[C@H]1OC(C)(C)O[C@@H]21" next?
-- reply inactive

---

# System: SK-MEL-28
# TEST: NCI tumour cell line growth inhibition, 48 h
The source made the active and inactive calls. Rule as the data show it: active = GI50 up to about 1.1 µM and inactive = higher. Where a SMILES comes first, the peptide text is derived from it.
MEASURED QUANTITY: GI50

MOLECULE	OBSERVED
N#C/C(=C1/Sc2c(nc[nH]c2=O)N1c1ccccc1)c1nc2ccccc2[nH]1	> 100 µM (inactive)
COc1cc2c(c(OC)c1OC)-c1ccc(SC)c(=O)cc1[C@@H](NCc1ccc([N+](=O)[O-])cc1)CC2	0.00493 µM (active)
CNC(SC)=C1C(=O)OC(C)(C)OC1=O	> 100 µM (inactive)
Fc1cc2nc3n(c2cc1F)C(c1c(Cl)cccc1Cl)SC3 (configuration not stated)	14 µM (inactive)
O=c1ssc2ncccc12	24.8 µM (inactive)
Cc1ccc(/C=C2\CCCC(C(NO)c3ccc(C)cc3)C2=NO)cc1 (configuration not stated)	16.1 µM (inactive)
CCn1ncc2c(=O)n3ncn(-c4ccc(Br)cc4)c3nc21	> 100 µM (inactive)
CCOC(=O)c1c(N)sc2c1C(C(=O)OCC)CCC2 (configuration not stated)	> 100 µM (inactive)
CCOC(=O)C(C(=O)OCC)S(C)(=O)=O	> 100 µM (inactive)
C/C(=N\C1CCCCC1)c1ccccc1O	> 100 µM (inactive)

-- ask // query GI50 value for entry CCC(C)C1NC(=O)C2CCCN2C(=O)CNC(=O)C(C)NC(=O)C(Cc2ccccc2)NC(=O)C(C(C)C)NC1=O (configuration not stated) (cyclo(GPIVFA); configuration not given here)
-- reply > 100 µM (inactive)

-- ask Quick one: "COc1cccc(CCNc2c(C#N)c3n(c4ccccc4[n+]3C)c3ncccc23)c1"
-- reply 20.2 µM (inactive)

-- ask Further, for O=C1CC=C2C3CC4N(CCC45c4ccccc4N1C25)C/C3=C\CO (configuration not stated) ?
-- reply > 100 µM (inactive)

-- ask Same question for Cc1ccccc1N(CCC#N)C1=NN(C(=O)CC(=O)Nc2ccccc2)C(c2ccccc2)C1 (configuration not stated) please.
-- reply > 100 µM (inactive)

-- ask Thanks! And "CC12c3c4cc(Br)cc3Oc3cc(Br)cc(c31)Oc1cc(Br)cc(c12)O4" ?
-- reply 30.5 µM (inactive)
